Origin of values: patent US7504420B2

- System: memapsin 2 (Homo sapiens)
- Sequence (P56817 46-501): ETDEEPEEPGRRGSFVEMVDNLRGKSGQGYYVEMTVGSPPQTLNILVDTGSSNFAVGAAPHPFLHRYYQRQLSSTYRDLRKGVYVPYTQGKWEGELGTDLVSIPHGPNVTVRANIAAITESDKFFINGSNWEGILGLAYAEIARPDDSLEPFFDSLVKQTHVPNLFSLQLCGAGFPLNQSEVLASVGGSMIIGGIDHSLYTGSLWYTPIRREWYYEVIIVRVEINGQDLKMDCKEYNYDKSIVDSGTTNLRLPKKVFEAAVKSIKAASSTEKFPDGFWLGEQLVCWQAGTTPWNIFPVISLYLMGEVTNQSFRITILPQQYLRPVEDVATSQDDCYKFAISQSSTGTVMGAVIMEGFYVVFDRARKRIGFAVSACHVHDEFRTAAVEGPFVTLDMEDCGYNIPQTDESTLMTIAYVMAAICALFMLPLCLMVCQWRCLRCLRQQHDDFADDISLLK
- Protocol: Inhibition of memapsin 2 catalytic activity (Ki)
- Type: biochemical
- Conditions: memapsin 2, pH 4, 37° C.; read-out: M2K
pKi: −log10 of the molar value.
Provide the reported pKi of each item.

Some solved entries appear below for comparison.
Molecule	System	Measurement kind	Observed result
Cc1cccc(CNCC(O)C(Cc2ccccc2)NC(=O)c2cc(C(=O)NC(C)c3ccccc3)cc(N(C)S(C)(=O)=O)c2)n1 (stereo not drawn)	memapsin 2 (Homo sapiens)	pKi	6.30 to 6.52
COc1cccc(CNCC(O)C(Cc2ccccc2)NC(=O)c2cccc(C(=O)N(Cc3nc(C)cs3)C3CCCC3)c2)c1 (stereo not drawn)	memapsin 2 (Homo sapiens)	pKi	> 6.52
COc1ccccc1CCNCC(O)C(Cc1ccccc1)NC(=O)c1cc(C(=O)NC(C)c2ccccc2)cc(N(C)S(C)(=O)=O)c1 (stereo not drawn)	memapsin 2 (Homo sapiens)	pKi	> 6.52
CC(NC(=O)c1cc(C(=O)NC(Cc2ccccc2)C(O)CNCc2cccc(F)c2)cc(N(C)S(C)(=O)=O)c1)c1ccccc1 (stereo not drawn)	memapsin 2 (Homo sapiens)	pKi	> 6.52
COc1cccc(CNCC(O)C(Cc2ccccc2)NC(=O)c2cc(C(=O)NC(C)c3nc(C)oc3C)cc(N(C)S(C)(=O)=O)c2)c1 (stereo not drawn)	memapsin 2 (Homo sapiens)	pKi	< 6.30

Your task in this section: give pKi for each listed record.
1. CC(NC(=O)c1cc(C(=O)NC(Cc2ccccc2)C(O)CNCc2cccn2COCC[Si](C)(C)C)cc(N(C)S(C)(=O)=O)c1)c1ccccc1 (stereo not drawn)
2. CC(NC(=O)c1cc(C(=O)NC(Cc2ccccc2)C(O)CNN(C)c2ccccc2)cc(N(C)S(C)(=O)=O)c1)c1ccccc1 (stereo not drawn)
3. COc1cncc(CNCC(O)C(Cc2ccccc2)NC(=O)c2cc(C(=O)NC(C)c3ccccc3)cc(N(C)S(C)(=O)=O)c2)c1 (stereo not drawn)
4. CC(NC(=O)c1cc(C(=O)NC(Cc2ccccc2)C(O)CNCc2cccc(COCc3ccccc3)c2)cc(N(C)S(C)(=O)=O)c1)c1ccccc1 (stereo not drawn)
5. CC(NC(=O)c1cc(C(=O)NC(Cc2ccccc2)C(O)CNCC2CCCN(C)C2)cc(N(C)S(C)(=O)=O)c1)c1ccccc1 (stereo not drawn)

Response:
["6.30 to 6.52", "6.30 to 6.52", "> 6.52", "6.30 to 6.52", "< 6.30"]
